Just for reference, paper PMC9352680 is where these values come from.

Molecular target: T1, PUF4 RNA-binding domain (Saccharomyces cerevisiae, UniProt P25339 537-888)
T1 sequence: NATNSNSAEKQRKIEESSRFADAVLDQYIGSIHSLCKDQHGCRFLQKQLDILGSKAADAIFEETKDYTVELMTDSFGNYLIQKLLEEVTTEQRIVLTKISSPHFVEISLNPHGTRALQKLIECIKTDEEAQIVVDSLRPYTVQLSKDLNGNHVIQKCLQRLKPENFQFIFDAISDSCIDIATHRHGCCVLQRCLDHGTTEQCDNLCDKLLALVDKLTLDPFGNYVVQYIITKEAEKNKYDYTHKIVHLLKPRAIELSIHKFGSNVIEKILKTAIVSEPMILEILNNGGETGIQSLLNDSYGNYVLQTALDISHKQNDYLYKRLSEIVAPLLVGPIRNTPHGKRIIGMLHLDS
Experiment: Mg; RNA-MaP; 20 mM Na-HEPES pH 7.4, 30 mM KOAc, 0.75 mM MgCl2, 0.1% Tween-20, 5% glycerol, 0.1 mg/mL BSA, 2 mM DTT; 25 C; 0.0125-409.6 nM protein
Settings: tags: N-His6-TEV cleaved; C-SNAP kept, Cy3B-labelled; label: tethered on chip by stalled RNA polymerase
pKd: −log10 of the molar value.
Decision: pKd compared against 8; not below it gives y, below it gives n.

I'd appreciate it if you could say whether UCUCUUUCUUAUAUAUUAAUUCUCUU (ssRNA) [Id_iii_S1_P4E.6_K4.2_C4.3_H4.2_A4.1_F4.1_T4.2_[G10A]] has pKd at least equal to 8. n

I'd appreciate it if you could say whether Id_ii_S4_P4E.2_K4.1_C4.2_[C-2A]_[T-1A]_H4.1_A4.1_F4.1_T4.2_[G10T] (ssRNA) RNA: UUUGACAACUGAUCGUUCUUUCUAAUGUAUAUUAUUUUCUUUCUCGAUCAGUUGUCUUU has pKd at least equal to 8. y

I'd appreciate it if you could say whether ACAAACCCUAUAUAUAUGACAAAC (ssRNA) [Id_ii_S3_P3E.3_K3.2_C3.2_[T-1C]_H3.2_A3.1_F3.1_T3.2_[A10G]] has pKd at least equal to 8. n

I'd appreciate it if you could say whether UCUCUUUCUAUAUUAUUACGUCUCUU (ssRNA) [Id_ii_S1_P5E.3_K5.2_C5.2_[C-2T]_[T-1C]_H5.2_A5.1_F5.1_T5.2_[T11C]_[A12G]] has pKd at least equal to 8. n

Others:
I'd appreciate it if you could say whether UCUCUUCCUAUAUUAUUAAUUCUCUU (ssRNA) [Id_ii_S1_P5E.3_K5.2_C5.2_[T-1C]_H5.2_A5.1_F5.1_T5.2_[T11A]_[A12T]] has pKd at least equal to 8. n

I'd appreciate it if you could say whether Id_ii_S4_P4E.4_K4.3_C4.2_[C-2G]_H4.3_A4.1_F4.1_T4.2_[G10A]_[T11A] (ssRNA) RNA: UUUGACAACUGAUCGUUCUUUCUGUACACUAUUAAAUUCUUUCUCGAUCAGUUGUCUUU has pKd at least equal to 8. y
